# systemTested: T1, HLA-A2.1 MHC class I on the surface of T2 cells
# T1 construct: whole, on cells; MHC class I molecule stabilised on T2 cells by added peptide
# protocol: T2 MHC class I stabilisation, flow cytometry with anti HLA-A2.1 mAb, peptide at 10 ug (printed '10 lg'), n = 3
Items are presented alongside their recorded Mean T2 binding ratio.

Take a look at these entries with their results.
# binder, assayMetric, testResult
measured = [
    ("VIAKFQNKL (Synthetic peptide) [T21:607 peptide]", "Mean T2 binding ratio", "0.967 ratio to DMSO control"),
    ("YLIHLLQEL (Synthetic peptide) [T21:765 peptide]", "Mean T2 binding ratio", "1.11 ratio to DMSO control"),
    ("SLERLVNAI (Synthetic peptide) [T21:660 peptide]", "Mean T2 binding ratio", "0.942 ratio to DMSO control"),
]

Kindly consider the entry below.
Name the reported Mean T2 binding ratio value associated with the binder LIIPSLERL (Synthetic peptide) [T21:656 peptide] 0.928 ratio to DMSO control
